Hello, the source for this data is PubChem BioAssay (NCI), in case you need it.

Test system: MCF7 breast
Test: NCI tumour cell line growth inhibition, 48 h; in the data active = GI50 below about 0.43 µM; inactive = the rest
Output constraint: value belongs to active, inactive

Completed entries (count: 10):
{"Compound": "O=C(/C=C/c1ccc([N+](=O)[O-])cc1)c1ccc2c3c(cccc13)CC2", "System": "MCF7 breast", "Category label": "inactive"}
{"Compound": "O=C(Nc1ccc(Cl)cc1)Nc1ccc(Nc2nncc3ccccc23)cc1", "System": "MCF7 breast", "Category label": "inactive"}
{"Compound": "CC1(C)[C@@H](OC(N)=O)[C@H]2O[C@H]2[C@]2(CO)[C@H]3CC[C@]4(C)[C@@H](c5ccc(=O)oc5)[C@@H](Cl)C[C@]4(O)C3=CC[C@@H]12", "System": "MCF7 breast", "Category label": "active"}
{"Compound": "O=C(Nc1ccc(Cl)c(Cl)c1)O/N=C\\c1c(Cl)ccc([N+](=O)[O-])c1Cl", "System": "MCF7 breast", "Category label": "active"}
{"Compound": "CCCOC(=O)N1CCN(/[N+]([O-])=N/Oc2ccc([N+](=O)[O-])cc2[N+](=O)[O-])CC1", "System": "MCF7 breast", "Category label": "inactive"}
{"Compound": "Cc1c2c(nn1C)CSCc1cc(n(C)n1)CSc1cc(c3ccccc3c1)OCCCc1c(C(=O)O)n(C)c3c-2c(Cl)ccc13", "System": "MCF7 breast", "Category label": "inactive"}
{"Compound": "CN(C)c1ccc2c(c1)OC(N)=C(C#N)C2c1ccc2c(c1)CCO2 (stereo unspecified)", "System": "MCF7 breast", "Category label": "active"}
{"Compound": "Nc1nc(Nc2ccc(C3CCC(N4CCOCC4)CC3)cc2)nn1-c1ccccn1 (stereo unspecified)", "System": "MCF7 breast", "Category label": "inactive"}
{"Compound": "NC(=O)c1c(NC(=O)c2ccc3c(c2)OCO3)sc2c1CCC(=O)C2", "System": "MCF7 breast", "Category label": "inactive"}
{"Compound": "O=C(NN1C(=O)CSC12CCCC2)c1[nH]c2ccc(Br)cc2c1-c1ccccc1", "System": "MCF7 breast", "Category label": "inactive"}

Consider the additional compound presented here.
query: // return assay outcome for Cc1cc(N2CCCC2)nc(N(CCNc2ccnc3cc(Cl)ccc23)Cc2ccco2)n1
result: inactive

###

Test system: SNB-75 CNS
Assay: NCI tumour cell line growth inhibition, 48 h
Reported TGI by item:

Here is how some compounds turned out for TGI.
{"Compound": "NNC(=O)Cn1c2ccc(Br)cc2c2nc3ccccc3nc21", "System": "SNB-75 CNS", "TGI": "> 100 µM"}
{"Compound": "COC(=O)C1=CC2C(=O)OC1CC2C#N (stereo unspecified)", "System": "SNB-75 CNS", "TGI": "> 100 µM"}
{"Compound": "CC1=NN(c2nc(N)nc(/C(C#N)=C/c3cccn3-c3cc(Cl)cc(Cl)c3)n2)C(C)(C)C1", "System": "SNB-75 CNS", "TGI": "99.7 µM"}
{"Compound": "CC[N+]1(C)CCC(O)(c2ccc(Cl)c(Cl)c2)C(C(=O)c2ccc(Cl)c(Cl)c2)C1 (stereo unspecified)", "System": "SNB-75 CNS", "TGI": "> 10 µM"}
{"Compound": "COc1ccc(C2SC(C)C(=O)N2NC(=O)C(O)c2ccccc2)cc1OC (stereo unspecified)", "System": "SNB-75 CNS", "TGI": "> 100 µM"}

The measured TGI associated with CN(C)c1ccc2c(c1)OC(N)=C(C#N)C2c1ccc2c(c1)CCO2 (stereo unspecified) reads > 49.4 µM

What the record says about S=C1SCN(Cc2ccco2)CN1c1ccc(Br)cc1 : TGI is > 100 µM

###

Tested on: CAKI-1 renal
Assay: NCI tumour cell line growth inhibition, 48 h
Readout label: TGI (µM)
Provide the reading as a plain figure in µM.

Some compounds with known TGI results, for comparison:
{"Compound": "CCOc1cc(C2CC(c3ccc(NS(=O)(=O)c4cc([N+](=O)[O-])ccc4C)cc3)=NN2c2ccc([N+](=O)[O-])cc2[N+](=O)[O-])ccc1O (stereo not drawn)", "Readout label": "TGI", "Result units": "µM", "Observed value": 56.5}
{"Compound": "CC1(C)[C@@H](OC(N)=O)[C@H]2O[C@H]2[C@]2(CO)[C@H]3CC[C@]4(C)[C@@H](c5ccc(=O)oc5)[C@@H](Cl)C[C@]4(O)C3=CC[C@@H]12", "Readout label": "TGI", "Result units": "µM", "Observed value": 0.0132}
{"Compound": "O=[N+]([O-])c1cccc([As]=[As]c2cccc([N+](=O)[O-])c2)c1 (stereo not drawn)", "Readout label": "TGI", "Result units": "µM", "Observed value": 0.281}

# TGI of N#Cc1ccccc1-c1nc2c3c(c(N)ccc3n1)C(=O)c1ccccc1-2 = 43.6

###

Tested on: NCI-H522 lung
Assay: NCI tumour cell line growth inhibition, 48 h; in the data active = GI50 below about 0.43 µM; inactive = the rest
Your reply should match one of these outcome classes. active, inactive

Examples from the recorded data:
{"Compound": "O=C(Nc1ccc(Cl)c(Cl)c1)O/N=C\\c1c(Cl)ccc([N+](=O)[O-])c1Cl", "Category label": "inactive"}
{"Compound": "COc1cccc(-n2ncc3c(N/N=C/c4ccncc4)ncnc32)c1", "Category label": "inactive"}

query: How did this test come out for Clc1nc(Cl)c2ncn(C/C=C/COc3cccc(OC/C=C/Cn4cnc5c(Cl)nc(Cl)nc54)c3)c2n1 ?
result: inactive

query: Just curious, what result did O=C1c2ccccc2-c2c1c1ccccc1c(=O)n2CCN1CCOCC1 get here?
result: inactive

query: Check the results log: what was the call for Cc1ccc(CNc2c3ccccc3nc3cc(NC(=O)CCN4CCCC4)ccc23)cc1 ?
result: inactive

query: Just curious, what result did COc1ccc(/C=C\c2cc(OC)c(OC)c(OC)c2)cc1OC get here?
result: active

###

System: HCC-2998 colon
Experiment: NCI tumour cell line growth inhibition, 48 h; in the data active = GI50 below about 0.43 µM; inactive = the rest
Thanks in advance; please answer with one of these: active, inactive

Here are 5 compounds together with their reported answers.
{"Compound": "O=C(/C=C/c1ccc([N+](=O)[O-])cc1)c1ccc2c3c(cccc13)CC2", "Category label": "inactive"}
{"Compound": "COc1cccc(-n2ncc3c(N/N=C/c4ccncc4)ncnc32)c1", "Category label": "inactive"}
{"Compound": "C1CN(SSN2CCOCC2)CCO1", "Category label": "inactive"}
{"Compound": "Cc1ccc(CNc2c3ccccc3nc3cc(NC(=O)CCN4CCCC4)ccc23)cc1", "Category label": "inactive"}
{"Compound": "COc1ccc(C(=O)c2cc3c(N)c(C(=O)Nc4cccc5ccccc45)sc3nc2C)cc1", "Category label": "active"}

query: Given O=c1nc2oc3ccc4ccccc4c3cc-2s1 , state the outcome it received in this test.
result: inactive

query: Give the logged outcome of this assay for the following compound: CN(C)c1ccc2c(c1)OC(N)=C(C#N)C2c1ccc2c(c1)CCO2 (centres undefined)
result: inactive

query: Recorded test outcome, item CC(C)(O)CC(=O)NCCn1ccc2ncnc(Nc3ccc(Oc4cccc(C(F)(F)F)c4)c(Cl)c3)c21
result: inactive

query: For NC(=O)c1c(NC(=O)c2ccc3c(c2)OCO3)sc2c1CCC(=O)C2 , which call appears in the assay record?
result: inactive

###

System: OVCAR-8 ovarian
Assay: NCI tumour cell line growth inhibition, 48 h
Readout label: GI50

{"Compound": "COc1ccc(OC)c(-c2c(C#N)c(N)nc(N3CCOCC3)c2C#N)c1", "System": "OVCAR-8 ovarian", "GI50": "79.1 µM"}

Entry Cc1ccc(S(=O)(=O)Nc2cccc3[nH]c(C(F)(F)F)nc23)cc1 under OVCAR-8 ovarian had GI50 of 1.22 µM

Bench note, OVCAR-8 ovarian: entry O=C(Nc1ccc(Cl)cc1)Nc1ccc(Nc2nncc3ccccc23)cc1 , its GI50 = 3.12 µM

Field GI50 (OVCAR-8 ovarian), entry C[C@@H]1CC[C@H]2C(C(O)CCCCC(O)C3=C(C(F)(F)F)O[C@@H]4O[C@@]5(C)CC[C@H]6[C@H](C)CC[C@@H]3[C@@]46OO5)=C(C(F)(F)F)O[C@@H]3O[C@@]4(C)CC[C@@H]1[C@]32OO4 (some centres undefined) : 11.3 µM

###

Test system: DMS 114 small cell lung
Test: NCI tumour cell line growth inhibition, 48 h
Known TGI of a selection of compounds

Observe how each entry below is paired with its result.
{"Compound": "COc1ccccc1Cc1nc(-c2ccccc2)nn(C2OC(COC(C)=O)C(OC(C)=O)C(OC(C)=O)C2OC(C)=O)c1=S (stereo not drawn)", "Readout label": "TGI", "Observed value": "> 100 µM"}
{"Compound": "O=c1c2ccccc2nc(-c2ccccc2)n1NC1OC(CO)C(O)C(O)C1O (stereo not drawn)", "Readout label": "TGI", "Observed value": "> 100 µM"}
{"Compound": "O=CN/C=C/c1ccc(O)c(O)c1", "Readout label": "TGI", "Observed value": "> 100 µM"}
{"Compound": "COC(=O)C1=C(c2cc(OC)c(OC)c(OC)c2)OC(c2ccc(OC)c(OC)c2)C1 (stereo not drawn)", "Readout label": "TGI", "Observed value": "81.3 µM"}
{"Compound": "N#CC(c1nc2ccccc2nc1Cl)S(=O)(=O)c1ccccc1 (stereo not drawn)", "Readout label": "TGI", "Observed value": "> 100 µM"}
{"Compound": "COc1ccc(C(=O)C(c2ccc(OC)cc2)C2(O)C(=O)Nc3c2ccc(Cl)c3C)cc1 (stereo not drawn)", "Readout label": "TGI", "Observed value": "> 100 µM"}
{"Compound": "Cc1cc(Cl)ccc1NC(=O)CC/C(CC(=O)C(C)C)=N\\NC(=O)C[n+]1ccccc1", "Readout label": "TGI", "Observed value": "> 100 µM"}
{"Compound": "COc1c2c(nc3ccccc13)-c1cc3c(c(=O)n1C2)COC(=O)C3(O)CC(=O)N1CCOCC1 (stereo not drawn)", "Readout label": "TGI", "Observed value": "24.2 µM"}

For COc1cc2c(cc1OC)C(Cl)C(c1ccc(Cl)c(Cl)c1)=C2Cl (stereo not drawn) the compound record lists TGI as 15.9 µM

Short answer for CN1c2ccccc2N(C)C23N(C)c4ccccc4N(C)C12N(C)c1ccccc1N3C (stereo not drawn) : TGI was > 100 µM

GET /value?item= COC(=O)c1cc(Cl)ccc1NC(=O)c1ccc([N+](=O)[O-])cc1 &field=TGI returns > 100 µM

// TGI value for C[C@]12CCC3[C@@H](CC[C@@H]4c5nonc5CC[C@]34C)C1C/C(=N/O)C2=O (stereo partly drawn) : > 100 µM

Item: COc1ccc(C(=O)Cc2ccc(Br)cc2)cc1OC | TGI: > 100 µM
